Biological target: Fibroblast growth factor 2 (Homo sapiens)
Experiment: basic fibroblast growth factor binding to printed compounds – biochemical, small-molecule microarray, 635/667 nm fluorescence, primary screen (AID 1133)
Conditions: FGF2, fluorescence 635/667, higher = more signal
Readings of composite z-score for the listed compounds

Example cases with answers are listed next.
Cc1ccc([C@H]2C(C(=O)O)=C[C@@H](C(C)C)N2S(=O)(=O)c2ccc(C)cc2)cc1 | -0.376
Cc1ccc(N2C(=O)c3ccccc3[C@](C)(C(=O)NCCN3CCOCC3)[C@@H]2c2ccc(CO)cc2)nc1 | -0.833
CC(C)N1C(=O)c2ccccc2[C@](C)(C(=O)NCCCN(C)C)[C@@H]1c1ccc(CO)cc1 | -0.224

Name the reported composite z-score value associated with the compound CC(C)(C)OC(=O)CC[C@@]1(C(=O)N2CCOCC2)N=C(c2ccc(OCCCO)cc2)O[C@@H]1c1ccccc1N=[N+]=[N-] 1.22

Name the reported composite z-score value associated with the compound O=C(NCC(O)CO)[C@]1(CCS(=O)(=O)c2ccccc2)N=C(c2ccc(OCCCO)cc2)O[C@@H]1c1ccccc1 (stereo partly specified) -0.702

Name the reported composite z-score value associated with the compound CCOC(=O)N1C(c2ccc(OCCCO)cc2)=NC(C(=O)OC)N1C(=O)OCC (stereo unspecified) 0.955
